STUDY TARGET: T1, IL-18 receptor (IL-18Rα and IL-18Rβ) (UniProt Q13478 19-541; O95256 20-599, limits assumed)
T1 sequence (looked up) 1: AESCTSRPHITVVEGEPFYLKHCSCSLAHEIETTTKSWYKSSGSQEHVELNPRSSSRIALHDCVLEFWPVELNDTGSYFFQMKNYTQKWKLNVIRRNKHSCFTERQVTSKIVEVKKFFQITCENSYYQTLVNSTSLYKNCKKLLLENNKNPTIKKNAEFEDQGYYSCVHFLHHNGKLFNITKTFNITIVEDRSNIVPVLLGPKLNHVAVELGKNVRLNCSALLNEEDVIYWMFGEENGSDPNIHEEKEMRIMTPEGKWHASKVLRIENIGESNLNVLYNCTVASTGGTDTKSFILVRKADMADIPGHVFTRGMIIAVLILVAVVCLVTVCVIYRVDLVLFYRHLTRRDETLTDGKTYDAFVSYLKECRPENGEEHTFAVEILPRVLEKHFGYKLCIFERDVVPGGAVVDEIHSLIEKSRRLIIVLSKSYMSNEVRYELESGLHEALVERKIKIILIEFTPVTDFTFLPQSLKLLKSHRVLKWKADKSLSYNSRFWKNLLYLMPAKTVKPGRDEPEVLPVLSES
T1 sequence (looked up) 2: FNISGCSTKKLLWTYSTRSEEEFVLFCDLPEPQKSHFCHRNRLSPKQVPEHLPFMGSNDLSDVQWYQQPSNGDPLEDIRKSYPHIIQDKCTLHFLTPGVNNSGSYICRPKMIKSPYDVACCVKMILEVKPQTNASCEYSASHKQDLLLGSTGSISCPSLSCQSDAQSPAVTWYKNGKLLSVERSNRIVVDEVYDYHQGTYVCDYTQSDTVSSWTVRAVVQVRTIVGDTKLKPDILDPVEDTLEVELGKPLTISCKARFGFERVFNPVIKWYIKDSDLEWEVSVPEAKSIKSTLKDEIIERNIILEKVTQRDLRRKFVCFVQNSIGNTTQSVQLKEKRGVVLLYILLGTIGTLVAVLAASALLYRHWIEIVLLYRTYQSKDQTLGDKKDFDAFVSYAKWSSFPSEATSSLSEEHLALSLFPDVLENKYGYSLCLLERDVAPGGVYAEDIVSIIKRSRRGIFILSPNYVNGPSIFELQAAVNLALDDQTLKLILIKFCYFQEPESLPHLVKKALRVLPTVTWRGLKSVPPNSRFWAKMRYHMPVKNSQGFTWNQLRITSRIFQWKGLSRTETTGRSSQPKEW
ASSAY METHOD TEXT: cell-based or functional assay
QUANTITY KIND: PBMC IFN gamma EC50 relative to WT-IL18, run 3
Number only, please.

Example entries and their recorded answers appear below.
| BINDER | READOUT VALUE |
| --- | --- |
| hIL18 (G3T, E6K, K53A, M60K) - KiH (Fc fusion) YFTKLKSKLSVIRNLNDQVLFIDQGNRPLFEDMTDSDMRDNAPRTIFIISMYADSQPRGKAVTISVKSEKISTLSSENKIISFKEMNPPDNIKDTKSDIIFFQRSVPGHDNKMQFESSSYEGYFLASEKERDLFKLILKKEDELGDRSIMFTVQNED | 0.13 |
| hIL18 (G3V, E6K, K53A, M60K)- KiH (Fc fusion) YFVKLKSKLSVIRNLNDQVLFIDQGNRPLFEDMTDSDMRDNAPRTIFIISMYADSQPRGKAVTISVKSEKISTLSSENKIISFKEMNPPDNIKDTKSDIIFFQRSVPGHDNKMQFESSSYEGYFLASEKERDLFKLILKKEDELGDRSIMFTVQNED | 0.03 |

Field: next binder
Challenge: Return the recorded PBMC IFN gamma EC50 relative to WT-IL18, run 3 value; entry: hIL18 (G3V, K53S, M60K) - KiH (Fc fusion) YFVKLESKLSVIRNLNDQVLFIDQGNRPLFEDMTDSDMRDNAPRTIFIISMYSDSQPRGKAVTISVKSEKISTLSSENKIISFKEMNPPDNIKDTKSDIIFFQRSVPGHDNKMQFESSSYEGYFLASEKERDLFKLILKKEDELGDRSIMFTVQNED
Response given: 3.73
